Measured values drawn from patent US20190367619A1 for this set.

Catalogue of log10(koff) values
Target: T1, human galectin-10-His (recombinant human galectin-10 with TEV-cleavable N-terminal His-tag) (human)
T1 construct: SEC-MALLS: dimer in solution; also called Gal10-His; humanGal10-His
T1 chain: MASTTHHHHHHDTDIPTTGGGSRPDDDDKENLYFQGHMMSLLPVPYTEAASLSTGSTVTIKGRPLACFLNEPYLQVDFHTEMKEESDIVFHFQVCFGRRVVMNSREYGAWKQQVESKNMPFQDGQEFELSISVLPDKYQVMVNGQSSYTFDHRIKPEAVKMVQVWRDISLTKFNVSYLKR
Test: SPR Biacore T3000, mouse IgG1 captured by anti-mouse Fc, galectin-10-His as analyte
Readout: log10(koff) (log10 of the value in s⁻¹)

2C07 mouse IgG1 (antibody, V domains shown, VH on mouse IgG1 heavy chain constant domains (CH1-CH2-CH3), VL on mouse lambda light chain constant domain; also called 2C07 mIgG1) VH: ELQLVESGGGLVQPGGSLRLSCAASGFTFSSYAMSWVRQAPGKGLEWVSNINSGGGSTGYADSVKGRFTISRDNAKNTLYLQMNSLKPEDMAVYYCAKYLRTYYPNAAFGMDYWGKGTLVTVSS VL: QAVLTQPSAVSVSLGQTARITCQGGNFGRYYASWYQQKPGQAPVLVIYRDSERPSGIPERFSGSSSGDTATLTISGAQAEDEADYYCQSGRSSDNAVFGGGTHLTGL    -3.44
6A08 mouse IgG1 (antibody, V domains shown, also called 6A08 mIgG1) VH: QVQLVESGGGLVQPGGSLRLSCAASGFTFSSYAMSWVRQAPGKGPEWVSAINRGGGSTYYADSVKGRFTISRDNAKNTLYLQMNSLKPEDAAVYYCATPGDRLWYYRYDYWGQGAQVTVSS VL: QTVVTQEPSLSVSPGGTVTLTCGLSSGSVTSSNYPGWYQQTPGQAPRLLIYNTNSRYSGVPNRFSGSISGNKAALIISGAQPEDEADYHCALNRVRGTYRVFGGGTHLTVL    -3.17
1D11 mouse IgG1 (antibody, V domains shown, VH on mouse IgG1 heavy chain constant domains (CH1-CH2-CH3), VL on mouse lambda light chain constant domain; also called 1D011; 1D11 mIgG1) VH: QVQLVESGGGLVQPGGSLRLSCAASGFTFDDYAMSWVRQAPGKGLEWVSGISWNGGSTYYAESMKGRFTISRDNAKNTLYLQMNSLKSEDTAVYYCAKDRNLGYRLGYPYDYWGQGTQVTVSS VL: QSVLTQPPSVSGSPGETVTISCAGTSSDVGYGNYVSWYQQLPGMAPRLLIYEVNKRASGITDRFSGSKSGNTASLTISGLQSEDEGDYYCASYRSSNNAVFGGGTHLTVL    -2.28
6E10 mouse IgG1 (antibody, V domains shown, also called 6E010; 6E10 mIgG1) VH: QLQLVESGGGLVQPGGSLRLSCAASGFTFSSYWMYWVRQAPGKGLEWVSAINTGGGSTYYADSVKGRFTISRDNAKNTLYLQMNSLKPEDTALYYCARAGSGVAGTGYDYWGQGTQVTVSS VL: QPVLNQPSAVSVSLGQTARITCQGGNFGYYYVSWYQQKPGQAPVLVIYRDSGRPSGIPERFSGSSSGDTATLTISGAQAEDEADYYCQSGSSSDNAVFGGGTHLTVL    -3.09
6A05 mouse IgG1 (antibody, V domains shown, also called 6A05 mIgG1) VH: EVQLVESGGGLVQPGGSLRLSCAASGFTFSSYAMSWVRQAPGKGLEWVSAINSGGGWTSYVDSVKGRFTISRDNAKNTLYLQMDSLKPEDTAVYYCTKYSGPELNTQYGMDYWGKGTLVTVSS VL: NFMLTQPSAVSVSLGQTARITCQGGNFGSYYASWYQQKPGQAPVLVIYRDSGRPSGIPERFSGSSSGDTATLTISGAQAEDEADYYCQSGSSSDNTVFGGGTHLTVL    -2.32
